Origin of measurements: ChEMBL document CHEMBL4138161

tested on: Nannizzia gypsea; assay: Antifungal activity against Microsporum gypseum Cmccfmza after 24 hrs by spectrophotometric analysis; assay type: functional
Recorded log10 MIC80 values for a group of molecules are listed next.
Record value = log10 of MIC80 given in µg/mL.

Completed entries (count: 5):
| molecule | log10 MIC80 |
| --- | --- |
| CCOC(=O)c1ccnc2c1C(=O)c1sc([N+](=O)[O-])cc1C2=O | 0.60 |
| CC(C)(C)c1cnc2c(c1)C(=O)c1sc([N+](=O)[O-])cc1C2=O | 0.00 |
| COc1ccccc1-c1ccnc2c1C(=O)c1sc([N+](=O)[O-])cc1C2=O | 1.20 |
| CCCCc1ccnc2c1C(=O)c1sc([N+](=O)[O-])cc1C2=O | 0.30 |
| CC(C)(C)OC(=O)N1CCC(c2ccnc3c2C(=O)c2sc([N+](=O)[O-])cc2C3=O)CC1 | 1.20 |

Query: Data request, read-out log10 MIC80, for O=C1c2cc([N+](=O)[O-])sc2C(=O)c2c(-c3ccccc3[N+](=O)[O-])ccnc21
Result: 0.90

Query: Data request, read-out log10 MIC80, for CC(c1ccccc1)c1ccnc2c1C(=O)c1sc([N+](=O)[O-])cc1C2=O (stereo unspecified)
Result: 0.00

Query: Data request, read-out log10 MIC80, for CCCc1cnc2c(c1)C(=O)c1sc([N+](=O)[O-])cc1C2=O
Result: 0.00

Query: Data request, read-out log10 MIC80, for Cc1ccnc2c1[C@H](O)c1sc([N+](=O)[O-])cc1[C@@H]2O (relative stereo)
Result: 0.90

Query: Data request, read-out log10 MIC80, for O=C1c2cc([N+](=O)[O-])sc2C(=O)c2c(C3CCNCC3)ccnc21
Result: 1.81

Query: Data request, read-out log10 MIC80, for CN(C)c1ccc(-c2ccnc3c2C(=O)c2sc([N+](=O)[O-])cc2C3=O)cc1
Result: 1.20

Query: Data request, read-out log10 MIC80, for CCc1cnc2c(c1)C(=O)c1sc([N+](=O)[O-])cc1C2=O
Result: -0.60

Query: Data request, read-out log10 MIC80, for CCCCc1cnc2c(c1)C(=O)c1sc([N+](=O)[O-])cc1C2=O
Result: 0.00

Query: Data request, read-out log10 MIC80, for CCC(C)n1ncn(-c2ccc(N3CCN(c4ccc(OCC5COC(Cn6cncn6)(c6ccc(Cl)cc6Cl)O5)cc4)CC3)cc2)c1=O (stereo unspecified) [ITRACONAZOLE]
Result: 0.60

Query: Data request, read-out log10 MIC80, for Cc1cnc2c(c1C)C(=O)c1sc([N+](=O)[O-])cc1C2=O
Result: 0.00

Query: Data request, read-out log10 MIC80, for Cc1cnc2c(c1)C(=O)c1sc([N+](=O)[O-])cc1C2=O
Result: -0.30

Query: Data request, read-out log10 MIC80, for CCCc1ccnc2c1C(=O)c1sc([N+](=O)[O-])cc1C2=O
Result: 0.30

Query: Data request, read-out log10 MIC80, for O=C1c2cc([N+](=O)[O-])sc2C(=O)c2c(-c3ccccc3)ccnc21
Result: 0.60

###

test system: Nakaseomyces glabratus; assay: Antifungal activity against Candida glabrata 537 after 24 hrs by spectrophotometric analysis; format: functional; conditions: Nakaseomyces glabratus, 537, 24 h
Recorded MIC80 values for a group of compounds are listed next.

Completed entries (count: 2):
| structureAsSmiles | MIC80 |
| --- | --- |
| COc1ccccc1-c1ccnc2c1C(=O)c1sc([N+](=O)[O-])cc1C2=O | > 64 µg/mL |
| CC(C)(C)OC(=O)/C=C/c1ccnc2c1C(=O)c1sc([N+](=O)[O-])cc1C2=O | > 64 µg/mL |

Please find the next compound below.
Query: Data request, read-out MIC80, for O=C1c2cc([N+](=O)[O-])sc2C(=O)c2c(C3CCNCC3)ccnc21
Result: > 64 µg/mL
